FYI, the data here is from PubChem BioAssay.

# Assay procedure: inhibitors of the yeast RAM network, pilot screen, dse1pr::URA3 reporter, 5-FOA selection (AID 869);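 also: 0% = DMSO wells with no growth and 100% = 10 µM 1-NA-PP1 with full growth; RAM network block rescues cells from 5-FOA so hits raise OD615 growth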
# Settings: S. cerevisiae dse1pr::URA3 5-FOA growth, OD615, 2 d; at 10 µM; stronger effect = higher value; strain carries analog-sensitive mutant Cbk1 kinase
The source made the active and inactive calls.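 The calls were made as follows: active = inhibition over a set limit, the all-compound mean plus 3 SD, in both replicate runs; inconclusive = over that limit in just one replicate run; inactive = at or under that limit in both runs.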
Assay readout: inhibition

Known results for molecules:
Molecule	Test result
COc1ccc(Oc2coc3c(CN(C)C)c(O)ccc3c2=O)cc1	0.075% (inactive)
COc1ccc(C2CC(c3ccc(F)cc3)Nc3nc(N)nn32)cc1 (stereo unspecified)	1% (inactive)
O=C(Cn1cc2c(n1)CCCCC2)NCc1ccccn1	3.27% (inactive)
Cc1cc(NC(=O)CSc2ccc3nnc(-c4ccccn4)n3n2)no1	0.535% (inactive)
CCOC(=O)Cc1csc(NC(=O)Nc2ccccc2)n1	0.665% (inactive)

What the record says about COc1ccc(C)c2sc(=NC(=O)C(C)C)n(C)c12 : inhibition is 3.1% (inactive)

What the record says about Cc1ccc(S(=O)(=O)N2CCN(C(=O)CSc3nnc(C)s3)C2)cc1 : inhibition is 1.31% (inactive)

What the record says about CN1CCc2c(sc3nc(SCC(=O)N4CCOCC4)nc(N)c23)C1 : inhibition is 0.215% (inactive)

====

Each item that follows carries a reported Her2 level.
# Assay system: Receptor tyrosine-protein kinase erbB-2 (Homo sapiens)
# Assay procedure: reducers of endogenous Her2 protein level, primary screen, SKBR3 breast tumor cells, AlphaScreen, ATP viability (AID 461);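 also: lower value means less Her2 protein in the cells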
# Settings: 18-24 h, at 10 µM, stronger effect = lower value
Reply numerically in %, unit not repeated.

Molecule	Her2 level, %
O=C(Nc1ccc(N2CCCCC2)cc1)c1ccc(F)cc1	106
COC(=O)c1ccccc1NC(=O)CC(NCc1ccccc1)C(=O)O (stereo not drawn)	111
Cc1ccc(-n2nnnc2SCC(=O)c2cc(C)n(-c3cc(C)on3)c2C)cc1	83

Known value: Receptor tyrosine-protein kinase erbB-2 (Homo sapiens) Her2 level of the molecule Cc1sc2ncnc(OCC(=O)N3CCN(S(=O)(=O)c4ccccc4)CC3)c2c1C equals 84.5

Known value: Receptor tyrosine-protein kinase erbB-2 (Homo sapiens) Her2 level of the molecule CCn1nnc(NC(=O)c2cc3ccccc3o2)n1 equals 103

Known value: Receptor tyrosine-protein kinase erbB-2 (Homo sapiens) Her2 level of the molecule O=c1[nH]c(N2CCc3ccccc32)nc2c1CCCC2 equals 104

Known value: Receptor tyrosine-protein kinase erbB-2 (Homo sapiens) Her2 level of the molecule CCOc1cc(C(=O)NCc2nnc(SCC(=O)OC)n2C)cc(OCC)c1OCC equals 85

Known value: Receptor tyrosine-protein kinase erbB-2 (Homo sapiens) Her2 level of the molecule COc1cccc(Cn2c(OCC3CCCO3)nc3c2c(=O)n(C)c(=O)n3C)c1 (stereo not drawn) equals 86

Known value: Receptor tyrosine-protein kinase erbB-2 (Homo sapiens) Her2 level of the molecule O=C(CCCN1CC=C(n2c(=O)[nH]c3ccccc32)CC1)c1ccc(F)cc1 equals 103

Known value: Receptor tyrosine-protein kinase erbB-2 (Homo sapiens) Her2 level of the molecule CCC(C)(C(=O)NC1CCCCC1)N(Cc1ccco1)C(=O)c1ccc2c(c1)OCO2 (stereo not drawn) equals 89

====

# Assay procedure: growth suppression of yeast trafficking mutant, preliminary HTS, modulators of trafficking downstream of Golgi apparatus project, 1536-format plate, OD 615 nm (AID 637)
# Settings: yeast transport mutant growth, absorbance 615 nm, 18 h; stronger effect = higher value
Assay readout: inhibition (%)
Reply numerically in %, unit not repeated.

Known results for compounds:
Compound	inhibition (%)
Cc1cccc(CCNC(=O)CCc2nc(-c3ccccc3F)no2)c1	-5
Cc1cccc(-c2cc3nc4c(c(N5CCOCC5)n3n2)CCCC4)c1	2.95
Cc1cccc(N2C(=O)CC(N3CCN(C(=O)c4ccccc4)CC3)C2=O)c1 (stereo unspecified)	2.13
Cc1nc2nc(Cc3ccccc3)[nH]n2c(=O)c1Cc1ccccc1	1.64
COC(=O)c1ccccc1NC(=O)Cn1ccnc1	1.11

Note: attention shifts to another entry.
What the record says about CCOC(=O)c1c(C)[nH]c(C=Nc2ccccc2)c1O : inhibition is 11.4

====

# Assay procedure: Restrictive medium S. cerevisiae growth inhibition, OD615, pilot screen of yeast lifespan reduction project, restrictive growth control (AID 706);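 also: modified DeaD lifespan yeast strain shifted to restrictive glucose medium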
# Settings: OD615, 48 h, at 10 µM, stronger effect = higher value
Each item that follows carries a reported growth inhibition.
Reply numerically in %, unit not repeated.

Known results for compounds:
Compound	Output unit	Test result
CC(=O)CCS(=O)(=O)c1ccc(C)c(C)c1	%	-7.75
CCN(CCNC(=O)CCCn1nc(C)n2c(cc3sccc32)c1=O)c1ccccc1	%	-4.82
CSc1nnc(Cn2c(=O)sc3ccccc32)n1CCc1ccccc1	%	9.71
O=C(CN1CCCCC1)Nc1ccc(F)c(Cl)c1	%	4.63
COc1ccc(-c2noc(-c3ccccc3F)n2)cc1	%	-12
O=S(=O)(Nc1nnc(-c2ccccc2)s1)c1ccc(Cl)cc1	%	14.4
OCC1(C2=NOC(O)(C(F)(F)F)C2)CCCCC1 (stereo unspecified)	%	-22.3
O=C(CSc1ccc2nnc(-c3ccccn3)n2n1)NCc1ccc2c(c1)OCO2	%	21.4
Cc1cc(S(=O)(=O)N2CCN(Cc3ccc4c(c3)OCO4)CC2)cc(C)c1N1CCCC1=O	%	-19.3
Cc1cccc(-n2c(Cc3cc(=O)[nH]c(=O)[nH]3)nnc2SC(C)C)c1	%	-1.15

Note: attention shifts to another entry.
What the record says about COCCn1c(CN(C)Cc2ccccc2)nc2c1c(=O)n(C)c(=O)n2C : growth inhibition is 8.7

====

Each item that follows carries a reported viability increase.
# Assay procedure: viability gain of MRP-1-high H69AR cells under doxorubicin, pilot screen, MRP-1 activator project, CellTiter-Glo, duplicate (AID 807);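 also: compound pretreatment 18-22 h then 72 h combined with doxorubicin; 0% = doxorubicin alone and 100% = vehicle without doxorubicin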
# Settings: H69AR viability with doxorubicin, CellTiter-Glo luminescence; at 10 µM; stronger effect = higher value
Reply numerically in %, unit not repeated.

What the record says about CC(=O)Nc1nc2c(F)cccc2s1 : viability increase is -2.43

What the record says about CCCCCCn1c(CN2CCN(CCO)CC2)nc2c1c(=O)n(C)c(=O)n2C : viability increase is -4.86

What the record says about O=C(Nc1ccc2nc(-c3cccnc3)[nH]c2c1)c1ccco1 : viability increase is -2.85

What the record says about CC(=O)c1cccc(NC(=O)C2CCN(S(=O)(=O)c3ccc(F)cc3)CC2)c1 : viability increase is -2.82

What the record says about Cc1ccc(O)c(C(=O)CC(=O)c2cccc(F)c2)c1 : viability increase is -7.04

What the record says about Cc1oc(-c2ccc(Cl)cc2)nc1CN1CCCC(C(=O)N2CCN(C(=O)c3ccco3)CC2)C1 (stereo not drawn) : viability increase is -4.07

What the record says about COc1cc(OC)cc(C(=O)Nc2cc(NC(=O)c3ccco3)ccc2OC)c1 : viability increase is -5.63

What the record says about Cc1ccc(S(=O)(=O)n2ccnc2)cc1C : viability increase is -0.49

What the record says about O=C(CCCOc1ccccc1)N1CCCc2ccccc21 : viability increase is -2.01

What the record says about O=C(O)[C@H](Cc1ccccc1)N1Cc2ccccc2C1=O : viability increase is -2.35

What the record says about CC(=O)Nc1cccc(N2C(=O)CC(Cc3ccccc3)C2=O)c1 (stereo not drawn) : viability increase is -1.68

====

# Assay procedure: OD615 S. cerevisiae growth inhibition, permissive medium, pilot counter-assay, permissive growth control for S. cerevisiae lifespan shortening project (AID 705)
# Settings: OD615, 24 h, at 10 µM, stronger effect = higher value
Assay readout: growth inhibition (%)
Reply numerically in %, unit not repeated.

Compound	growth inhibition / %
CCNC(=O)CN(C1CCCCC1)S(=O)(=O)c1ccc(F)cc1	-8.23

What the record says about CC(C)CC(NS(=O)(=O)c1ccc2c(c1)oc(=O)n2C)C(=O)N1CC=C(c2ccccc2)CC1 (stereo unspecified) : growth inhibition is -18.2

What the record says about CC(=O)c1cccc(NC(=O)c2cnn3ccccc23)c1 : growth inhibition is -8.43

What the record says about O=C1CCCN1CC(CN1CCOCC1)Sc1nc2ccccc2c(=O)n1-c1ccccc1 (stereo unspecified) : growth inhibition is -2.25

What the record says about O=C1N(O)C2(C=CCCC2)/C(=N\O)C12CCCCC2 (stereo unspecified) : growth inhibition is -11.1

What the record says about CC(C)(C)OC(=O)N1CCC(C(N)=O)CC1 : growth inhibition is -1.93

What the record says about Oc1ccc(C=NCC2COc3ccccc3O2)cc1 (stereo unspecified) : growth inhibition is -7.84

What the record says about COc1ccc(C2C=C(c3ccccc3)Nc3nnnn32)cc1 (stereo unspecified) : growth inhibition is -5.09

What the record says about CSc1nc(SCC(=O)NCc2ccco2)c2c3c(sc2n1)COC(C)(C)C3 : growth inhibition is -11.7

What the record says about Cc1cc(C)cc(OCC(=O)Nc2cccc(-c3nc4ncccc4o3)c2)c1 : growth inhibition is -7.77

What the record says about O=C(Nc1nnc(-c2cccs2)o1)c1cccc(F)c1 : growth inhibition is -18.7
